- assayedTarget: the molecule itself
- experimentNotes: ThT fluorescence fibrillation kinetics; self-assembly into amyloid without seeds; 15 µM FapC (wt or mutant; wt also 1-15 µM), 50 mM Tris/HCl pH 7.4, 40 µM ThT, 37 °C, no shaking, followed for 120 h
experimentalReadout: binding result

1) FapC UK4 Asp90Lys and Ser228Lys (natural protein, Pseudomonas sp. UK4, FapC, Pseudomonas sp; UK4, double charge mutant made on the FapC UK4 plasmid; Same construct as m1 but for the mutations; also called cluster of three positive charges (Lys90, Lys155, and Lys228); source: E. coli BL21 (DE3), purified (Ni-NTA in 7.5 M guanidine hydrochloride), desalted) GPAEKWKPTPAPTGTVAAAVTDTQVSKDNKFDDTKTLNNAGANGSLSNSKGNLGANIAAGSGNQQKNAAAITSSAGDAATVFAVADIYQESKDNKFTNKGTQNNALLNNSANNSSGNVGVNVAAGQGNQQKNNLAIVTADGKNVAAASNTEQVSLDNHFLNEASSKHSYKPQYVVNNAGLLNSANNASGNIGVNVAAGAGNQQKNTLTLGSGCTVCAAGTGSKLAF ... binds
2) FapC UK4 Gly84Ala (natural protein, Pseudomonas sp. UK4, FapC, Pseudomonas sp; UK4, point mutant made on the FapC UK4 plasmid; Same construct as m1 but for the mutation; also called G84A; source: E. coli BL21 (DE3), purified (Ni-NTA in 7.5 M guanidine hydrochloride), desalted) GPAEKWKPTPAPTGTVAAAVTDTQVSKDNKFDDTKTLNNAGANGSLSNSKGNLGANIAAASGNQQDNAAAITSSAGDAATVFAVADIYQESKDNKFTNKGTQNNALLNNSANNSSGNVGVNVAAGQGNQQKNNLAIVTADGKNVAAASNTEQVSLDNHFLNEASSKHSYKPQYVVNNAGLLNSANNASGNIGVNVAAGAGNQQSNTLTLGSGCTVCAAGTGSKLAF ... binds
3) FapC UK4 Asn229Ala (natural protein, Pseudomonas sp. UK4, FapC, Pseudomonas sp; UK4, point mutant made on the FapC UK4 plasmid; Same construct as m1 but for the mutation; source: E. coli BL21 (DE3), purified (Ni-NTA in 7.5 M guanidine hydrochloride), desalted) GPAEKWKPTPAPTGTVAAAVTDTQVSKDNKFDDTKTLNNAGANGSLSNSKGNLGANIAAGSGNQQDNAAAITSSAGDAATVFAVADIYQESKDNKFTNKGTQNNALLNNSANNSSGNVGVNVAAGQGNQQKNNLAIVTADGKNVAAASNTEQVSLDNHFLNEASSKHSYKPQYVVNNAGLLNSANNASGNIGVNVAAGAGNQQSATLTLGSGCTVCAAGTGSKLAF ... binds
